Attribute: hAmylin-R funct. EC50
- measurement.target: T1, human amylin receptor (amylin 3(a) receptor: human calcitonin receptor plus RAMP-3) (human, UniProt P30988 25-474; O60896 24-148, limits assumed)
- T1 sequence (looked up) 1: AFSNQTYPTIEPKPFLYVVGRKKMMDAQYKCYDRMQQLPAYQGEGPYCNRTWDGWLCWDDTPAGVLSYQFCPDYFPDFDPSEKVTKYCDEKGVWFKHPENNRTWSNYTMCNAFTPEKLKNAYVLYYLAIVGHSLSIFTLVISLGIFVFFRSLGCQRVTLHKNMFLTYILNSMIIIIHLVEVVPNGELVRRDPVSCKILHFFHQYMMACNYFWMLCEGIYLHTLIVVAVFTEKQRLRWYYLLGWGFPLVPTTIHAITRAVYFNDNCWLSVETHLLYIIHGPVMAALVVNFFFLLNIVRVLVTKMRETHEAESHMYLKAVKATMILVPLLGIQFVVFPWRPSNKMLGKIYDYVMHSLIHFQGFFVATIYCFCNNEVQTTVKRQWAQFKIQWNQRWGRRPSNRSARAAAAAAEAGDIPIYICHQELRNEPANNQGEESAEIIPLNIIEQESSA
- T1 sequence (looked up) 2: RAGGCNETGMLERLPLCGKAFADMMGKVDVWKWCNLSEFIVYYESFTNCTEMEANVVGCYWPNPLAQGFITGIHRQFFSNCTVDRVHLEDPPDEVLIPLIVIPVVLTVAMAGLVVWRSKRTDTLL
- measurement.protocol: cell-based or functional assay
Numbered stars: 1 amine (or outer) side, 2 acyl side, 3 side chain; on linkers, the order of the positions; unused ones are H or OH. Bridge positions count the residues as written; N and C are the ends. Side chains are listed from the residue outwards. Ends that are not written are not given here. * marks the point of attachment. C20 diacid = O=C(O)CCCCCCCCCCCCCCCCCCC(=O)*; γGlu = O=C(O)[C@H](CCC(=O)[*:2])N[*:1]; AEEA = NCCOCCOCC(=O)O
Give your result in nM as a bare value.

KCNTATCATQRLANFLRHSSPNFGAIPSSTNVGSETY (C20 diacid-gGlu on the alpha amino group of the N-terminal residue; disulfide bridge Cys2-Cys7; C-terminal amide, Synthetic acylated analogue of human amylin; also called compound 23) [N^α1-[(4S)-4-carboxy-4-(19-carboxynonadecanoylamino)butanoyl]-[Arg17,Pro21,Pro27,Glu35]-h-amylin] : 0.34
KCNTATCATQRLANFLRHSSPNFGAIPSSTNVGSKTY (C20 diacid-gGlu on the alpha amino group of the N-terminal residue; disulfide bridge Cys2-Cys7; C-terminal amide, Synthetic acylated analogue of human amylin; also called compound 34) [N^α1-[(4S)-4-carboxy-4-(19-carboxynonadecanoylamino)butanoyl]-[Arg17,Pro21,Pro27,Lys35]-h-amylin] : 0.313
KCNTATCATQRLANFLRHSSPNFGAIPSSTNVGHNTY (C20 diacid-gGlu on the alpha amino group of the N-terminal residue; disulfide bridge Cys2-Cys7; C-terminal amide, Synthetic acylated analogue of human amylin; also called compound 40) [N^α1-[(4S)-4-carboxy-4-(19-carboxynonadecanoylamino)butanoyl]-[Arg17,Pro21,Pro27,His34]-h-amylin] : 0.164
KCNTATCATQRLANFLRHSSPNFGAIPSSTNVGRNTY (C20 diacid-gGlu on the alpha amino group of the N-terminal residue; disulfide bridge Cys2-Cys7; C-terminal amide, Synthetic acylated analogue of human amylin; also called compound 39) [N^α1-[(4S)-4-carboxy-4-(19-carboxynonadecanoylamino)butanoyl]-[Arg17,Pro21,Pro27,Arg34]-h-amylin] : 0.217
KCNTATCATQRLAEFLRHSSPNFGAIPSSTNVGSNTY (C20 diacid-gGlu on the alpha amino group of the N-terminal residue; disulfide bridge Cys2-Cys7; C-terminal amide, Synthetic acylated analogue of human amylin; also called compound 9) [N^α1-[(4S)-4-carboxy-4-(19-carboxynonadecanoylamino)butanoyl]-[Glu14,Arg17,Pro21,Pro27]-h-amylin] : 0.175
K([AEEA-γGlu-C20 diacid])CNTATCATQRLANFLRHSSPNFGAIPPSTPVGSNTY-NH2 (disulfide 2-7, Synthetic acylated analogue of human amylin; also called compound 53) : 0.064
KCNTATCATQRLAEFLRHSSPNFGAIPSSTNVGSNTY (C20 diacid-gGlu-2xOEG on the alpha amino group of the N-terminal residue; disulfide bridge Cys2-Cys7; C-terminal amide, Synthetic acylated analogue of human amylin; also called compound 19) : 0.307

Ask | Input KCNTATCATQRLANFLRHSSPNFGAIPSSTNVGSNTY (C20 diacid-gGlu-2xOEG on the alpha amino group of the N-terminal residue; disulfide bridge Cys2-Cys7; C-terminal amide, Synthetic acylated analogue of human amylin; also called compound 24) , output reported hAmylin-R funct. EC50.
Reply | 0.433
